- Test system: Mycobacterium tuberculosis
- experiment: Antimycobacterial activity against Mycobacterium tuberculosis H37Rv by microplate alamar blue assay
- Assay type: functional
Task for the reader: assign each of the following compounds its reported MIC.

Entry under review: CO[C@H]1/C=C/O[C@@]2(C)Oc3c(C)c(O)c4c(O)c(c(/C=N/N5CCN(C)CC5)c(O)c4c3C2=O)NC(=O)/C(C)=C\C=C\[C@H](C)[C@H](O)[C@@H](C)[C@@H](O)[C@@H](C)[C@H](OC(C)=O)[C@@H]1C . Reported MIC?
1 µg/mL

Entry under review: NNC(=O)c1ccncc1 . Reported MIC?
0.2 µg/mL

Entry under review: CCCCC(CC)CNCCO (stereo not given) . Reported MIC?
> 578 µM

Entry under review: CCCCC(CC)CN(CCO)C[C@H]1O[C@@H]2OC(C)(C)O[C@@H]2[C@H]2OC(C)(C)O[C@H]21 (stereo not given in full) . Reported MIC?
> 240 µM

Entry under review: CC[C@@H](CO)NCCN[C@@H](CC)CO . Reported MIC?
3.25 µg/mL
